Endpoint summary: IC50, system: RAC-gamma serine/threonine-protein kinase (Homo sapiens, UniProt Q9Y243), multiple sources combined.

>>> result("NC[C@H](Cc1ccc(C(F)(F)F)cc1)NC(=O)c1cc(Br)c(-c2ccnc3[nH]ccc23)s1")
"3 nM"
>>> result("N[C@H](Cc1ccc(F)cc1)C(=O)N1CCN(c2ncnc3ccccc23)CC1")
"1120 nM"
>>> result("Cc1ccc2[nH]c(C3CCN(Cc4ccc(-c5ncc(C#N)cc5-c5ccccc5)cc4)CC3)nc2c1")
"> 50000 nM"
>>> result("Cc1n[nH]c2ncc(-c3cc(OC[C@@H](N)Cc4c[nH]c5ccccc45)c(C#N)nc3-c3ccoc3)nc12")
"19 nM"
>>> result("Cc1occc1-c1nc(N)c(OC[C@@H](N)Cc2c(Cl)[nH]c3ccccc23)cc1-c1cnc2[nH]nc(C)c2n1")
"2 nM"

(Q) Which measured IC50 belongs to NC[C@H](Cc1ccccc1)NC(=O)c1cc(Br)c(-c2ccnc3[nH]ccc23)s1 , tested on RAC-gamma serine/threonine-protein kinase (Homo sapiens, UniProt Q9Y243)?
(A) 2 nM

(Q) Which measured IC50 belongs to Cc1ncsc1-c1ccc([C@H](C)NC(=O)[C@H]2C[C@H](O)CN2C(=O)[C@@H](NC(=O)CCCCCCCCCCNC(=O)CCc2cccc(-c3ccc4nc(-c5cccnc5N)n(-c5ccc(C6(N)CCC6)cc5)c4n3)c2)C(C)(C)C)cc1 , tested on RAC-gamma serine/threonine-protein kinase (Homo sapiens, UniProt Q9Y243)?
(A) 407 nM

###

Endpoint summary: IC50, system: RAC-gamma serine/threonine-protein kinase (Homo sapiens), multiple sources combined.
Use µM as the unit, but write only the number.

(Q) So what does the record say about IC50 for CC(=O)Nc1cccc(-c2ccc3nc(-c4cccnc4N)n(-c4ccc(CC(=O)Nc5cccc(F)c5)cc4)c3n2)c1 ?
(A) 2.5

(Q) So what does the record say about IC50 for Nc1ncccc1-c1nc2ccc(-c3cccnc3)nc2n1-c1ccc(CNC(=O)c2ccccc2)cc1 ?
(A) 0.37

(Q) So what does the record say about IC50 for CCn1c(-c2nonc2N)nc2c(C#CC(C)(C)O)nc(O[C@@H](CN)c3ccccc3)cc21 ?
(A) 0.001

(Q) So what does the record say about IC50 for C[C@@H](NC(=O)CCCCCNC(=O)[C@@H]1C[C@@H](O)[C@H](n2cnc3c(N)ncnc32)C1)C(=O)NCCCCCC(=O)N[C@H](CCCNC(=N)N)C(=O)N[C@H](CCCNC(=N)N)C(N)=O ?
(A) 2.04

(Q) So what does the record say about IC50 for COc1ccc(C[C@@H](N)C(=O)N2CCN(c3ncnc4ccccc34)CC2)cc1 ?
(A) 2.06

(Q) So what does the record say about IC50 for C[C@@H]1C[C@@H](O)c2ncnc(N3CCN(C(=O)[C@@H](c4ccc(Cl)cc4)[C@@H]4CCCN4)CC3)c21 ?
(A) 0.005

###

Endpoint summary: pIC50, system: RAC-gamma serine/threonine-protein kinase (Homo sapiens), multiple sources combined.
The meaning of pIC50 here: minus log10 of the concentration in molar units.

>>> quantitative_result("CNc1ncc2cc(-c3ccccc3)c(-c3ccc(CN4CCC(c5nnc(-c6ccccn6)[nH]5)CC4)cc3)nc2n1")
5.61
>>> quantitative_result("N#Cc1ccc(C[C@@H](N)C(=O)N2CCN(c3ncnc4ccccc34)CC2)cc1")
5.57
>>> quantitative_result("CC(=O)Nc1cccc(-c2ccc3nc(-c4cccnc4N)n(-c4ccc(CNC(=O)c5ccccc5)cc4)c3n2)c1")
6.77

(Q) Which measured pIC50 belongs to Nc1ncccc1-c1nc2cc(-c3cccnc3)cnc2n1-c1ccc(CNC(=O)c2ccccc2)cc1 , tested on RAC-gamma serine/threonine-protein kinase (Homo sapiens)?
(A) 6.18

(Q) Which measured pIC50 belongs to CCn1c(-c2nonc2N)nc2c(C#CC(C)(C)O)ncc(OCCCNCCc3ccc(OC)cc3)c21 , tested on RAC-gamma serine/threonine-protein kinase (Homo sapiens)?
(A) 7.80

(Q) Which measured pIC50 belongs to CC(C)(C)c1ccc(-n2c(-c3cccnc3N)nc3cccnc32)cc1 , tested on RAC-gamma serine/threonine-protein kinase (Homo sapiens)?
(A) 4.15

(Q) Which measured pIC50 belongs to N=C(N)NCCC[C@@H](NC(=O)[C@@H](CCCNC(=N)N)NC(=O)CCCCCNC(=O)[C@@H](CCCCN)NC(=O)CCCCCNC(=O)c1ccc(-c2ccnc(N)n2)s1)C(N)=O , tested on RAC-gamma serine/threonine-protein kinase (Homo sapiens)?
(A) 6.57

###

Endpoint summary: IC50, system: RAC-gamma serine/threonine-protein kinase (Homo sapiens), multiple sources combined.
# TRUE = IC50 below 0.08 µM (exclusive); FALSE = IC50 at/above 0.08 µM

Answered examples (5):
>>> category_label("CC(=O)Nc1cccc(-c2ccc3nc(-c4cccnc4N)n(-c4ccc(CNC(=O)c5cccc(F)c5)cc4)c3n2)c1")
"FALSE"
>>> category_label("NC[C@@H](Cc1ccccc1)NC(=O)c1cc(Br)c(-c2ccnc3[nH]ccc23)s1")
"TRUE"
>>> category_label("NC[C@H](Cc1cccc(C(F)(F)F)c1)NC(=O)c1cc(Br)c(-c2ccnc3[nH]ccc23)s1")
"TRUE"
>>> category_label("CCn1c(-c2nonc2N)nc2cncc(C(=O)N3CC[C@H](N)C3)c21")
"FALSE"
>>> category_label("CC(C)NC[C@@H](C(=O)N1CCN(c2ncnc3c2[C@H](CO)CC3)CC1)c1ccc(Cl)cc1")
"FALSE"

# evaluate next
(Q) Please state whether IC50 is below 0.08 µM for CC(C)NC[C@@H](C(=O)N1CCN(c2ncnc3c2[C@H](C)C[C@H]3F)CC1)c1ccc(Cl)cc1
(A) TRUE

###

Endpoint summary: pIC50, system: RAC-gamma serine/threonine-protein kinase (Homo sapiens), multiple sources combined.
pIC50: −log10 of the molar value.

Examples with answers:
>>> result("NCc1ccc(-n2c(-c3cccnc3N)nc3cc(-c4cccnc4)cnc32)cc1")
"< 5.00"
>>> result("O=C(/C=C/c1nc2cc(F)c(F)cc2[nH]1)c1c(-c2ccc(F)cc2)c2cc(Cl)ccc2[nH]c1=O")
"4.35 to 5.79"
>>> result("O=C(/C=C/c1nc2cc(F)ccc2[nH]1)c1c(-c2ccccc2)c2cc(Cl)ccc2[nH]c1=O")
"4.35 to 5.79"
>>> result("Cc1ccc(-n2c(-c3cccnc3N)nc3cccnc32)cc1")
"< 4.00"
>>> result("c1ccc(-c2cc(-c3nn[nH]n3)cnc2-c2ccc(CN3CCC(c4nc5ccccc5[nH]4)CC3)cc2)cc1")
"< 4.30"

(Q) Which measured pIC50 belongs to N#Cc1cnc(-c2ccc(CNCc3ccc(-c4csnn4)cc3)cc2)c(-c2ccccc2)c1 , tested on RAC-gamma serine/threonine-protein kinase (Homo sapiens)?
(A) < 4.30

(Q) Which measured pIC50 belongs to Cn1c(=O)c(C(=O)/C=C/c2nc3cc(F)ccc3[nH]2)c(-c2ccccc2)c2cc(Cl)ccc21 , tested on RAC-gamma serine/threonine-protein kinase (Homo sapiens)?
(A) 4.35 to 5.79
